# System: P. falciparum stage V gametocytes
# Set-up: BacTiter-Glo ATP luminescence viability of purified stage V gametocytes in 384-well plates, per cent inhibition versus DMSO
# test_conditions: 48 h, 5 µM; inhibitor
About 3,200 (25%) of roughly 13,000 compounds showed an effect of 50% or more. Some of the results follow.
measure: % Inhibition (%)
Respond with the bare value in %.

The following molecules have reported results that may help.
In [3]: df
Out[3]:
                                   molecule       measure  measure_unit  numeric_result
0         O=C(Nc1ccc(F)cc1)c1nc2ccccc2nc1Cl  % Inhibition             %           24.46
1  COc1cc(Nc2nccc(N3CCC(NC(=O)c4cc5ccccc5s4)C3)n2)cc(OC)c1OC (stereo not shown)  % Inhibition             %          0.1379
2  COc1cccc(C2(C)CCN(CCCCNC(=O)c3ccc(NC(=O)c4ccc(Cl)cc4)cc3)CC2)c1  % Inhibition             %          -18.96

Now look at this one.
Can you look up % Inhibition on P. falciparum stage V gametocytes for COc1ccc(Nc2nccc(N3CCC(NC(=O)Nc4cccc(C(C)=O)c4)C3)n2)cc1 (stereo not shown) ? -16.63
